Target: IsdH linker-NEAT3 (Staphylococcus aureus Mu50, UniProt Q931P4)
Sequence (Q931P4 476-664): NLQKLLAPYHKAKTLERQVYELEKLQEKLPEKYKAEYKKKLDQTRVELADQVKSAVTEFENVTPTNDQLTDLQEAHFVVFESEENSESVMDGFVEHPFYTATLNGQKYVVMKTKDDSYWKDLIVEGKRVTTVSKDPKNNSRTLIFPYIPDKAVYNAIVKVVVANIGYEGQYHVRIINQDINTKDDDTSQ
Assay: SPR
Conditions: both partners purified
Reported kon values for the following binders.
Form entry: value (M⁻¹ s⁻¹) — number only.

Binder	kon, M⁻¹ s⁻¹
VHH6 Y57A (VHH, source: E. coli BL21(DE3), purified as the WT (Ni-NTA, SEC)) VHH: ELQLVESGGGLVQPGGSLSLSCEVSGFSFDDVDNFIIAWFRQAPGKEREGVSFLRKADMSTYYAESVKGRFTISSDNARDTVYLQMTNLKPEDTAVYYCALDREGFVFEQGMDFWGKGTQVTVSS	126000

Dear colleague, I am looking for the recorded kon of the following binder: VHH6 R55A (VHH, source: E. coli BL21(DE3), purified as the WT (Ni-NTA, SEC)) VHH: ELQLVESGGGLVQPGGSLSLSCEVSGFSFDDVDNFIIAWFRQAPGKEREGVSFLAKYDMSTYYAESVKGRFTISSDNARDTVYLQMTNLKPEDTAVYYCALDREGFVFEQGMDFWGKGTQVTVSS
284000
